- assayDetails: Plasma Stability Assay
- Assay type: in vitro ADME
- conditionsUsed: rat, Table 4-C, t1/2
Bridge positions count the residues as written; N and C are the ends. Square brackets hold non-standard residues; d marks the D form. Peptide text beside a SMILES is read from it. NMeR = CN[C@@H](CCCNC(=N)N)C(=O)O; Pen = CC(C)(S)[C@H](N)C(=O)O
measuredProperty: half-life at 20 μM (h)

{"compound": "CC(=O)N[C@H]1CSSC[C@@H](C(=O)NCC(=O)N[C@@H](CCC(=O)O)C(=O)N[C@@H](CCCCN)C(=O)O)NC(=O)[C@H](CC(C)C)NC(=O)[C@H]([C@@H](C)O)NC(=O)[C@H](CC(=O)O)NC(=O)[C@H](CO)NC(=O)[C@H](CCCNC(=N)N)N(C)C1=O [compound 199, Ac-C-N-Me-R-S-D-T-L-C-G-E-K-OH] (Ac-C[NMeR]SDTLCGEK-OH; disulfide 1-7)", "measuredProperty": "half-life at 20 μM", "relationSymbol": "=", "resultNumber": 1.35}
{"compound": "CC(=O)N[C@H]1CSSC(C)(C)[C@@H](C(=O)N[C@H](CCCCN)C(N)=O)NC(=O)[C@H](CC(C)C)NC(=O)[C@H]([C@@H](C)O)NC(=O)[C@H](CC(=O)O)NC(=O)[C@H](CO)NC(=O)[C@H](CCCNC(=N)N)N(C)C1=O [compound 202, Ac-C-N-Me-R-S-D-T-L-Pen-k-NH2] (Ac-C[NMeR]SDTL[Pen][dK]-NH2; disulfide 1-7)", "measuredProperty": "half-life at 20 μM", "relationSymbol": ">", "resultNumber": 6}
